Tested on: HBL-100
Test: Antiproliferative activity against human HBL100 cells after 48 hrs by SRB assay
Type: functional
Conditions: HBL-100, 48 h

{"compound": "COC(=O)[C@]1(C)CCC[C@]2(C)c3cc(C(C)=O)c(C(C)C)cc3CC[C@@H]12", "GI50 / µM": 15}
{"compound": "COc1cc([C@@H]2c3cc4c(cc3[C@@H](O[C@@H]3O[C@@H]5CO[C@@H](C)O[C@H]5[C@H](O)[C@H]3O)[C@H]3COC(=O)[C@H]23)OCO4)cc(OC)c1O [ETOPOSIDE]", "GI50 / µM": 1.4}
{"compound": "COC(=O)[C@]1(C)CCC[C@]2(C)c3cc(O)c(C(C)C)cc3CC[C@@H]12", "GI50 / µM": 9.7}
{"compound": "COC(=O)[C@]1(C)CCC[C@]2(C)c3cc(OC(C)=O)c(C(C)C)cc3CC[C@@H]12", "GI50 / µM": 15}

* * *

System: Leishmania guyanensis
Assay: Antileishmanial activity against Leishmania guyanensis 141/93 promastigotes after 48 hrs by resazurin dye-based fluorometric analysis
Type: functional, organism-based
Settings: Leishmania guyanensis, 141/93, 48 h; read-out: IC50
pIC50: −log10 of the molar value.
Below, each of the molecules is paired with its reported pIC50 value.

{"structure.string": "COC(=O)[C@]1(C)CCC[C@]2(C)c3cc(O)c(C(C)C)cc3CC[C@@H]12", "pIC50": 5.23}
{"structure.string": "CC(C)c1cc2c(cc1O)[C@@]1(C)CCC[C@@](C)(C(=O)O)[C@@H]1CC2", "pIC50": 4.15}
{"structure.string": "COC(=O)[C@]1(C)CCC[C@]2(C)c3cc(C(C)=O)c(C(C)C)cc3CC[C@@H]12", "pIC50": 4.85}

* * *

Target: GABA-A receptor; alpha-1/beta-2/gamma-2 (Homo sapiens) (UniProt P14867+P47870+P18507)
Test: Modulation of recombinant wild type GABAA receptor alpha1beta2gamma2S (unknown origin) expressed in Xenopus laevis oocytes assessed as increase in GABA-evoked chloride current at 100 uM at -70 mV holding potential by two-microelectrode voltage clamp assay relative to control
Format: cell-based
Each entry below carries its recorded Activity.

{"molecule": "COC(=O)[C@]1(C)CCC[C@]2(C)c3cc(O)c(C(C)C)cc3C(=O)C[C@@H]12", "Activity [%]": 242}
{"molecule": "CC(C)c1cc2c(cc1O)[C@@]1(C)CCC[C@@](C)(C(=O)O)[C@@H]1CC2=O", "Activity [%]": -21.1}
{"molecule": "CC(C)C1=CC2=CC[C@H]3[C@](C)(C(=O)O)CCC[C@]3(C)C2CC1 (stereo not given in full)", "Activity [%]": 841}
{"molecule": "COC(=O)[C@]1(C)CCC[C@]2(C)c3cc(C(C)=O)c(C(C)C)cc3CC[C@@H]12", "Activity [%]": -2.9}
{"molecule": "COC(=O)[C@]1(C)CCC[C@]2(C)c3cc(OC(C)=O)c(C(C)C)cc3C(=O)C[C@@H]12", "Activity [%]": 46.7}

* * *

Molecular target: GABA-A receptor; alpha-1/beta-2/gamma-2 (Homo sapiens) (UniProt P14867+P47870+P18507)
Experiment: Modulation of recombinant wild type GABAA receptor alpha1beta2gamma2S (unknown origin) expressed in Xenopus laevis oocytes assessed as increase in GABA-evoked chloride current at 100 uM at -70 mV holding potential by two-microelectrode voltage clamp assay relative to control
Format: cell-based
Mark Condition not met for Activity values under 30%, and Condition met for everything at or above.

{"compound": "CC(C)c1cc2c(cc1O)[C@@]1(C)CCC[C@@](C)(CO)[C@@H]1CC2=O", "tgt": "GABA-A receptor; alpha-1/beta-2/gamma-2 (Homo sapiens) (UniProt P14867+P47870+P18507)", "class": "Condition not met"}
{"compound": "CC(C)c1cc2c(cc1O)[C@@]1(C)CCC[C@@](C)(C(=O)O)[C@@H]1CC2", "tgt": "GABA-A receptor; alpha-1/beta-2/gamma-2 (Homo sapiens) (UniProt P14867+P47870+P18507)", "class": "Condition not met"}
{"compound": "COC(=O)[C@]1(C)CCC[C@]2(C)c3cc(OC(C)=O)c(C(C)C)cc3CC[C@@H]12", "tgt": "GABA-A receptor; alpha-1/beta-2/gamma-2 (Homo sapiens) (UniProt P14867+P47870+P18507)", "class": "Condition not met"}
{"compound": "CC(C)c1cc2c(cc1O)[C@@]1(C)CCC[C@@](C)(CO)[C@@H]1CC2 [18-HYDROXYFERRUGINOL]", "tgt": "GABA-A receptor; alpha-1/beta-2/gamma-2 (Homo sapiens) (UniProt P14867+P47870+P18507)", "class": "Condition met"}
{"compound": "COC(=O)[C@]1(C)CCC[C@]2(C)c3cc(O)c(C(C)C)cc3CC[C@@H]12", "tgt": "GABA-A receptor; alpha-1/beta-2/gamma-2 (Homo sapiens) (UniProt P14867+P47870+P18507)", "class": "Condition met"}

* * *

Assay: Selectivity index, ratio of CC50 for mouse J774 cells to IC50 for Leishmania donovani MHOM/IN/80/DD8 promastigotes
Format: toxicity
Conditions: read-out: Ratio CC50/IC50
measurement.label: selectivity ratio

{"compound": "COC(=O)[C@]1(C)CCC[C@]2(C)c3cc(O)c(C(C)C)cc3CC[C@@H]12", "recorded.value": 3.7}
{"compound": "COC(=O)[C@]1(C)CCC[C@]2(C)c3cc(OC(C)=O)c(C(C)C)cc3CC[C@@H]12", "recorded.value": 3.3}
{"compound": "CC(C)c1cc2c(cc1O)[C@@]1(C)CCC[C@@](C)(CO)[C@@H]1CC2 [18-HYDROXYFERRUGINOL]", "recorded.value": 1.7}
{"compound": "COC(=O)[C@]1(C)CCC[C@]2(C)c3cc(OC(C)=O)c(C(C)C)cc3C(=O)C[C@@H]12", "recorded.value": 4.1}
{"compound": "CCCCCCCCCCCCCCCCOP(=O)([O-])OCC[N+](C)(C)C", "recorded.value": 909}
{"compound": "CC(C)c1cc2c(cc1O)[C@@]1(C)CCC[C@@](C)(CO)[C@@H]1CC2=O", "recorded.value": 0.7}
{"compound": "COC(=O)[C@]1(C)CCC[C@]2(C)c3cc(C(C)=O)c(C(C)C)cc3CC[C@@H]12", "recorded.value": 8.8}
{"compound": "CC(C)c1cc2c(cc1O)[C@@]1(C)CCC[C@@](C)(C(=O)O)[C@@H]1CC2", "recorded.value": 1.5}

* * *

List of IC50 values.
System: Leishmania guyanensis
Assay: Antileishmanial activity against Leishmania guyanensis 141/93 promastigotes after 48 hrs by resazurin dye-based fluorometric analysis
Assay type: functional, organism-based
Conditions: Leishmania guyanensis, 141/93, 48 h; read-out: IC50
measurement.label: IC50 (µM)

{"molecule": "CC(C)c1cc2c(cc1O)[C@@]1(C)CCC[C@@](C)(CO)[C@@H]1CC2 [18-HYDROXYFERRUGINOL]", "measurement.label": "IC50", "value.unit": "µM", "recorded.value": 12.5}
{"molecule": "CC(C)c1cc2c(cc1O)[C@@]1(C)CCC[C@@](C)(CO)[C@@H]1CC2=O", "measurement.label": "IC50", "value.unit": "µM", "recorded.value": 16.5}
{"molecule": "COC(=O)[C@]1(C)CCC[C@]2(C)c3cc(OC(C)=O)c(C(C)C)cc3C(=O)C[C@@H]12", "measurement.label": "IC50", "value.unit": "µM", "recorded.value": 1.3}
{"molecule": "COC(=O)[C@]1(C)CCC[C@]2(C)c3cc(OC(C)=O)c(C(C)C)cc3CC[C@@H]12", "measurement.label": "IC50", "value.unit": "µM", "recorded.value": 5.5}

* * *

Tested on: A549
Assay: Antiproliferative activity against human A549 cells after 48 hrs by SRB assay
Format: functional
Settings: A549, 48 h
measurement.label: GI50 (µM)

{"compound": "COc1cc([C@@H]2c3cc4c(cc3[C@@H](O[C@@H]3O[C@@H]5CO[C@@H](C)O[C@H]5[C@H](O)[C@H]3O)[C@H]3COC(=O)[C@H]23)OCO4)cc(OC)c1O [ETOPOSIDE]", "recorded.value": 1.5}
{"compound": "COC(=O)[C@]1(C)CCC[C@]2(C)c3cc(C(C)=O)c(C(C)C)cc3CC[C@@H]12", "recorded.value": 18}
{"compound": "COC(=O)[C@]1(C)CCC[C@]2(C)c3cc(O)c(C(C)C)cc3CC[C@@H]12", "recorded.value": 9.4}
{"compound": "COC(=O)[C@]1(C)CCC[C@]2(C)c3cc(OC(C)=O)c(C(C)C)cc3CC[C@@H]12", "recorded.value": 11}
